system: 953936-095-R-J2-PDC spheroids with HUVEC/MSC, viability; assay: Anticancer human tumor 953936-095-R-J2-PDC patient-derived cervical squamous cell carcinoma cell line growth inhibition [PI3K]; settings: second compound 1 µM; first compound 3.16 µM; active means viability on the fitted dose curve at most 10% of control; inactive means the rest;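 further: spheroids exposed to compounds for seven days before read-out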
Labels: t = active, f = inactive

| Compound | Answer Label |
| --- | --- |
| C[C@@H](NC(=O)c1ncnc(N)c1Cl)c1ncc(C(=O)Nc2cc(C(F)(F)F)c(Cl)cn2)s1 + CC(Nc1ccc2c(c1)OCCn1cc(N3C(=O)OCC3C(F)F)nc1-2)C(N)=O | f |
| CNC(=O)c1ccc(N2C(=S)N(c3ccc(C#N)c(C(F)(F)F)c3)C(=O)C2(C)C)cc1F + CC(Nc1ncnc2nc[nH]c12)c1cc2cccc(Cl)c2c(=O)n1-c1ccccc1 | f |
| Cn1nccc1Nc1nccc(-c2ccn(C(CO)c3ccc(Cl)c(F)c3)c(=O)c2)n1 (configuration not stated) + CC(Nc1ccc2c(c1)OCCn1cc(N3C(=O)OCC3C(F)F)nc1-2)C(N)=O | f |
| CC1(C)CCC(CN2CCN(c3ccc(C(=O)NS(=O)(=O)c4ccc(NCC5CCOCC5)c([N+](=O)[O-])c4)c(Oc4cnc5[nH]ccc5c4)c3)CC2)=C(c2ccc(Cl)cc2)C1 + Cc1nc(NC(=O)N2CCCC2C(N)=O)sc1-c1ccnc(C(C)(C)C(F)(F)F)c1 | f |
| C[C@@H](NC(=O)c1ncnc(N)c1Cl)c1ncc(C(=O)Nc2cc(C(F)(F)F)c(Cl)cn2)s1 + CC(Nc1ncnc2nc[nH]c12)c1cc2cccc(Cl)c2c(=O)n1-c1ccccc1 | f |
| Cn1ncc(Cl)c1-c1cc(C(=O)NC(CN)Cc2cccc(F)c2)sc1Cl (configuration not stated) + CC(Nc1ncnc2nc[nH]c12)c1cc2cccc(Cl)c2c(=O)n1-c1ccccc1 | f |
| CC(Cn1ccc(-c2ccc(C#N)c(Cl)c2)n1)NC(=O)c1cc(C(C)O)[nH]n1 (configuration not stated) + COc1c(OCCCN2CCOCC2)ccc2c3n(c(=NC(=O)c4cnc(N)nc4)nc12)CCN3 | t |
| CNC(=O)c1ccc(N2C(=S)N(c3ccc(C#N)c(C(F)(F)F)c3)C(=O)C2(C)C)cc1F + Cc1nc(NC(=O)N2CCCC2C(N)=O)sc1-c1ccnc(C(C)(C)C(F)(F)F)c1 | f |
| C=CC(=O)N1CCN(c2nc(=O)n(-c3c(C)ccnc3C(C)C)c3nc(-c4c(O)cccc4F)c(F)cc23)C(C)C1 (configuration not stated) + CC(Nc1ccc2c(c1)OCCn1cc(N3C(=O)OCC3C(F)F)nc1-2)C(N)=O | f |
| C=CC(=O)N1CCN(c2nc(=O)n(-c3c(C)ccnc3C(C)C)c3nc(-c4c(O)cccc4F)c(F)cc23)C(C)C1 (configuration not stated) + COc1c(OCCCN2CCOCC2)ccc2c3n(c(=NC(=O)c4cnc(N)nc4)nc12)CCN3 | t |
| CC1(C)CCC(Nc2ncc(C(F)(F)F)c(-c3c[nH]c4c(P(C)(C)=O)c(C#N)ccc34)n2)CN1 (configuration not stated) + CC(Nc1ncnc2nc[nH]c12)c1cc2cccc(Cl)c2c(=O)n1-c1ccccc1 | f |
| Cn1ncc(Cl)c1-c1cc(C(=O)NC(CN)Cc2cccc(F)c2)sc1Cl (configuration not stated) + Cc1nc(NC(=O)N2CCCC2C(N)=O)sc1-c1ccnc(C(C)(C)C(F)(F)F)c1 | f |
